Source: ChEMBL document CHEMBL4251545

- System: MDA-MB-231
- method_notes: Antiproliferative activity against human MDA-MB-231 cells after 3 days by DAPI staining-based fluorescence microscopic method
- Type: functional, cell-based
- settings: MDA-MB-231, 72 h
readout_kind: IC50 (µM)
Numbers only, in µM.

Summary for this compound, COc1cc(/C=C/C(=O)N2CCC(=O)CC2)cc(OC)c1O : IC50 is 6.6
